System: BxPC-3 (pancreatic adenocarcinoma) cell line
Test: Cellular proliferation assay in BxPC-3 cells (Cell-Titer Glo)
Assay type: cell-based
Conditions: Homo sapiens, 120 hours incubation, Cell-Titer Glo luminescence
Where a name gives a salt, the structure may show the parent alone.
Entries and their measured EC50 follow.

molecule: Nc1ccn([C@@H]2O[C@H](CO)[C@@H](O)C2(F)F)c(=O)n1 [Gemcitabine Hydrochloride, reference compound]
target: BxPC-3 (pancreatic adenocarcinoma) cell line
EC50: 1 to 10 nM
--
molecule: CCCCCCCCCCCCCCC(=O)OC1[C@@H](COP(=O)(OCOC(=O)CC(C)(C)C)OCOC(=O)CC(C)(C)C)O[C@@H](n2ccc(N)nc2=O)C1(F)F (stereo partly shown)
target: BxPC-3 (pancreatic adenocarcinoma) cell line
EC50: < 1 nM
--
molecule: CCCCCCCCCCCCCCCCCCC(=O)O[C@@H]1[C@@H](COP2(=O)OCc3ccccc3O2)O[C@@H](n2ccc(N)nc2=O)C1(F)F (stereo partly shown)
target: BxPC-3 (pancreatic adenocarcinoma) cell line
EC50: < 1 nM
--
molecule: CCCCCCCCCCCCC(=O)O[C@@H]1[C@@H](COP(=O)(OCOC(=O)CC(C)(C)C)OCOC(=O)CC(C)(C)C)O[C@@H](n2ccc(N)nc2=O)C1(F)F
target: BxPC-3 (pancreatic adenocarcinoma) cell line
EC50: 1 to 10 nM
